# Experiment notes: gradient 5% acetonitrile 3 min, to 50% in 2 min, to 85% in 15 min, held 3 min, 100 µL/min
# Condition label: column: Zorbax Extend-C18 2.1 x 50 mm; eluents: water / acetonitrile, 0.1% formic acid
Property label: RP-LC retention time (s)
Entry rule: numbers only, all in s.

# Compound, RP-LC retention time / s
measured = [
    ("CN1c2ccc(F)cc2C(=O)NC12CCN(C(=O)c1ccc(F)cc1)CC2", 769),
    ("Cn1nccc1-c1cccc(-c2noc(-c3cccc(C#N)c3)n2)c1", 1030),
    ("Cc1ccc(CNC(=O)c2ccc(CN3CCN(C4CCCC4)C(=O)C3=O)cc2)cc1C", 834),
]

Specify reported RP-LC retention time for the compound shown: CC1CCN(C(=O)c2cc3c(s2)CCC(C(=O)N2CCN(C)CC2)C3)CC1 (stereo not given)
575

Specify RP-LC retention time for COCCCNC(=O)N1CCCC1c1ccccc1Cl (stereo not given) and stop.
797

====

# Experiment notes: gradient 5% acetonitrile 3 min, to 50% in 2 min, to 85% in 15 min, held 3 min, 100 µL/min
# Condition label: column: Zorbax Extend-C18 2.1 x 50 mm; eluents: water / acetonitrile, 0.1% formic acid
Property label: RP-LC retention time (s)
Response body: numeric value in s, unit text excluded.

# Compound, Unit symbol, RP-LC retention time
measured = [
    ("Cc1ccc(-c2csc(NC(=O)CCCOc3ccc(Cl)cc3Cl)n2)cc1", "s", 1290),
    ("Cn1nc(-c2ccccc2)cc1N", "s", 599),
    ("COc1ccc2c(c1)-c1nc(NC(=O)c3ccc(Cl)cc3)sc1CC2", "s", 1180),
    ("COc1cccc(NC(=O)CSc2cc(N3CCN(c4ccccc4F)CC3)ncn2)c1", "s", 1060),
    ("O=C(CN1CC(c2nc(-c3cccnc3)no2)C1)Nc1cc(C(F)(F)F)ccc1Cl", "s", 634),
    ("COc1ccc(N2CCN(c3cc(SCC(=O)Nc4c(C)cc(C)cc4C)ncn3)CC2)cc1", "s", 983),
]

Return value of RP-LC retention time for input COc1ccc(C)cc1NC(=O)Cn1nc2nc(Nc3ccc(C)cc3)ccn2c1=O , no commentary.
862

Return RP-LC retention time for the following compound: O=C(Nc1ccccc1Br)N1CCCC1c1nc(-c2ccc(F)cc2F)no1 (centres undefined)
1070

Fill in reported RP-LC retention time for this entry: O=C(c1ccc2ccnc(N3CCN(c4ccc(F)cc4)CC3)c2c1)N1CCCCCC1
816

====

# Experiment notes: gradient 5% acetonitrile 3 min, to 50% in 2 min, to 85% in 15 min, held 3 min, 100 µL/min
# Condition label: column: Zorbax Extend-C18 2.1 x 50 mm; eluents: water / acetonitrile, 0.1% formic acid
Record Criterion met whenever RP-LC retention time is at 800 s or higher; record Criterion not met when lower.

# Compound, Class name
data = [
    ("O=C(CN1C(=O)C2CCCCN2c2ccc(C(=O)N3CCCC3)cc21)NCC1CCCO1 (stereo not given)", "Criterion not met"),
    ("O=S(=O)(c1ccccc1)N1CC2CN(S(=O)(=O)c3cccc(F)c3)CC(C1)O2", "Criterion met"),
    ("CCc1ccc(NC(=O)c2ccc(=O)n(CCN3CCCC3)c2)cc1", "Criterion not met"),
    ("O=C(Nc1ccccc1)N1CC(n2ccnc2)C1", "Criterion not met"),
    ("COCCc1noc(-c2cnc3nc(C)ccc3c2NC2CCCCCC2)n1", "Criterion not met"),
    ("COC(=O)c1ccc(CSc2ncnc3c2cnn3-c2ccc(C)cc2C)o1", "Criterion met"),
    ("COc1ccc(NC(=O)Cn2cnc3c(sc4nc(-c5ccccc5)ccc43)c2=O)cc1Cl", "Criterion met"),
    ("O=C(c1ccc2nsnc2c1)N1CCN(S(=O)(=O)C2CC2)CC1", "Criterion not met"),
    ("CCC1CCCCN1C(=O)c1cnc2nc(C)ccc2c1Nc1ccc(C)c(F)c1 (stereo not given)", "Criterion not met"),
    ("Cc1noc(C)c1S(=O)(=O)NCC1CCN(C(=O)c2cccn(C)c2=O)CC1", "Criterion not met"),
]

I'd appreciate it if you could say whether Cc1ncc2c(n1)CCN(C(=O)c1cccc(Cl)c1)C2 has RP-LC retention time at least equal to 800 s.
Criterion not met

Given the entry Cc1cc(NC(=O)CSc2nnnn2C)sn1 , answer whether its RP-LC retention time meets or surpasses 800 s.
Criterion not met

hey, is RP-LC retention time for this one >= 800 s? O=C(c1ccc(Cl)s1)N1CC(F)(F)C[C@H]1COc1cccnc1
Criterion not met

Evaluate CCn1cc(-c2nc(C)c(C(=O)NCc3ccc(F)cc3F)s2)c2cccnc21 : RP-LC retention time at minimum 800 s?
Criterion met

Answer whether RP-LC retention time of CCCn1ncc(N2CCC(C(=O)NCCCN3CCCC3=O)CC2)cc1=O is greater than or equal to 800 s.
Criterion not met

Does the reported RP-LC retention time for Cc1nn(C(C)C(=O)NCCc2c[nH]c3ccccc23)c(=O)c2c(C)n(-c3ccccc3)nc12 (stereo not given) fall at or above the 800 s mark?
Criterion met

Threshold query (RP-LC retention time >= 800 s) on CC(C)CCNC(=O)C1(C)CN(S(=O)(=O)c2ccccc2)CC(=O)N1c1ccc(Cl)cc1 (stereo not given)
Criterion met

====

# Experiment notes: gradient 5% acetonitrile 3 min, to 50% in 2 min, to 85% in 15 min, held 3 min, 100 µL/min
# Condition label: column: Zorbax Extend-C18 2.1 x 50 mm; eluents: water / acetonitrile, 0.1% formic acid
So basically, if RP-LC retention time comes in under 800 s it's Criterion met, and if it's 800 s or more it's Criterion not met.

Example results:
# Molecule, Class name
records = [
    ("Cc1nn(CC(=O)NC(C)c2ccc3c(c2)OCCO3)c(=O)c2c(C)n(-c3ccccc3)nc12 (centres undefined)", "Criterion not met"),
    ("COc1ccc2c(c1)C1(CCN(S(=O)(=O)c3cc(F)cc(F)c3)C1)C(=O)N2C (centres undefined)", "Criterion not met"),
    ("O=C(NCc1cccc(Br)c1)c1c(O)c2cccnc2[nH]c1=O", "Criterion not met"),
    ("O=C(Cn1c(=O)c2cc(-c3ccco3)nn2c2ncccc21)NC1CCCC1", "Criterion met"),
    ("CN1c2cc(F)ccc2C(=O)NC12CCN(C(=O)Cc1ccc(Cl)cc1)CC2", "Criterion not met"),
]

In plain terms, does NC(=O)C1CCN(C(=O)CSc2nc3c(c(-c4ccccc4)n2)CCCC3)CC1 come in under 800 s for RP-LC retention time?
Criterion met

Item O=C(NCc1ccccc1F)c1c(O)c2cccnc2n(-c2cccc(F)c2)c1=O : RP-LC retention time beneath 800 s, strictly?
Criterion not met

I wonder whether O=C(NCC1CCN(C(=O)c2ccccc2F)CC1)c1ccccn1 has RP-LC retention time below 800 s. Can you tell?
Criterion met

For COCCCNC(=O)C1(C)Cn2nc(-c3ccccc3)cc2C(=O)N1Cc1cc(OC)ccc1OC (centres undefined) , is the recorded RP-LC retention time below the cut-off of 800 s?
Criterion not met

For CCCn1cc(-c2nc(-c3ccccn3)no2)c(=O)c2cc(F)ccc21 , is the recorded RP-LC retention time below the cut-off of 800 s?
Criterion met

====

Here the recorded RP-LC retention time is given for each entry.
# Experiment notes: gradient 5% acetonitrile 3 min, to 50% in 2 min, to 85% in 15 min, held 3 min, 100 µL/min
# Condition label: column: Zorbax Extend-C18 2.1 x 50 mm; eluents: water / acetonitrile, 0.1% formic acid

The cases that follow already have their RP-LC retention time on record.
# Compound, Property label, Test value
data = [
    ("COc1ccc(Nc2ncccc2S(N)(=O)=O)cc1", "RP-LC retention time", "712 s"),
    ("COc1cccc(-n2c(=O)c3sccc3n(Cc3nc(-c4ccc(C)c(C)c4)no3)c2=O)c1", "RP-LC retention time", "1160 s"),
    ("Cc1[nH]c(C(=O)N2CCC(CC(=O)NCCc3c[nH]c4ccccc34)CC2)c(C)c1C", "RP-LC retention time", "674 s"),
    ("NC(=O)C1CCN(C(=O)c2ccc(Cn3c(=O)c4cccn4c4cccnc43)cc2)CC1", "RP-LC retention time", "655 s"),
]

// fetch RP-LC retention time given entry O=C(NCCC1=CCCCC1)C1CCCN(C(=O)Cc2cccc3ccccc23)C1 (centres undefined)
1030 s

Note RP-LC retention time for the compound shown: CCOC(=O)c1ccc(Nc2c(C(=O)N3CCCC(C)C3)cnc3nc(C)ccc23)cc1 (centres undefined)
669 s

Kindly indicate its recorded RP-LC retention time. Item: O=C1c2ccccc2C(=O)c2oc(-c3ccccc3)nc21
1150 s

Please list RP-LC retention time recorded for the compound COc1ccc(NC(=O)C2CCCN(c3nc4ccccc4nc3C(F)(F)F)C2)cc1OC (centres undefined)
1060 s

Please look at this compound and report its RP-LC retention time: CCOC(=O)COc1cc(-c2ccccc2)nc2ccc(NC(=O)C3CCC3)cc12
780 s
